As shown below, each of these compounds has a reported NADPH fluorescence slope value.
biological target: Voltage-gated potassium channel subunit beta-2 (Rattus norvegicus) (UniProt P62483); experiment: KvBeta positive modulators, primary screen, biochemical, NADPH fluorescence (AID 623); conditions: Recombinant KvBeta, NADPH fluorescence decrease slope, 10 min; at 10 µM; stronger effect = lower value;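 also: fluorescence intensity change per second fitted from 20 to 320 s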
Sequence (P62483 whole entry, looked up): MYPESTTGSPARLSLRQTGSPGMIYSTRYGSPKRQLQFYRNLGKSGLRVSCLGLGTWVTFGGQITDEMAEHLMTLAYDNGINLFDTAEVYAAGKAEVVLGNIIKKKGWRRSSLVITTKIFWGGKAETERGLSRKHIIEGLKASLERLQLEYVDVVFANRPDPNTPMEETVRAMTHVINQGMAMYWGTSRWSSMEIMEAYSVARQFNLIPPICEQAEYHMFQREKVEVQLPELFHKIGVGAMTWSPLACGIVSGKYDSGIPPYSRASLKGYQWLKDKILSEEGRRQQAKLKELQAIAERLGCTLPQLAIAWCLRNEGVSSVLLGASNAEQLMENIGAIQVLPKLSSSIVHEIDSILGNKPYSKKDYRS
Note: the reply should be a number with no unit written.

// worked examples, NADPH fluorescence slope included
| compound | NADPH fluorescence slope |
| --- | --- |
| Cn1c(SCC(=O)N2CCOCC2)nnc1-c1ccc(Cl)cc1Cl | 1.1e-05 |
| CCOc1ccc(Cc2nc(N)nc(N)n2)cc1 | -0.000176 |
| CC(C)(C)c1cccc(/C=N/O)c1O | -2.2e-05 |
| C=CCOc1nc2c(c(=O)n(C)c(=O)n2C)n1Cc1ccccc1Cl | -0.000108 |
| Clc1ccc2[nH]c3c(NCCN4CCOCC4)ncnc3c2c1 | -3.9e-05 |

Now for another entry.
[ask] State the recorded NADPH fluorescence slope for this entry: COc1ccc(C2C(C#N)=C(SC)NC3=C2C(=O)CC(C)(C)C3)cc1 (stereo unspecified)
[reply] -9.7e-05
